Test system: Liver
Assay: Drug uptake in BALB/c mouse liver implanted with mouse 4T1 cells assessed per gram of tissue at 0.18 mg/kg, ip after 6 hrs by HPLC-based fluorescence analysis
Format: ADME, organism-based
Conditions: in vivo
Quantity: Drug uptake (ng/g)
Dear colleague, please return just the value in ng/g, with no unit written.

Data point: CN1CC2C3=N/C(=C(/c4c(F)c(F)c(S[C@@H]5O[C@H](CO)[C@@H](O)[C@H](O)[C@H]5O)c(F)c4F)C4=N/C(=C(/c5c(F)c(F)c(F)c(F)c5F)c5ccc([nH]5)/C(c5c(F)c(F)c(S[C@@H]6O[C@H](CO)[C@@H](O)[C@H](O)[C@H]6O)c(F)c5F)=C5/C=CC(=N5)C3c3c(F)c(F)c(F)c(F)c3F)C=C4)C2C1 (stereo partly specified) ; Drug uptake = 109

----------
System: Lung
Assay: Drug uptake in BALB/c mouse lung implanted with mouse 4T1 cells assessed per gram of tissue at 0.18 mg/kg, ip after 24 hrs by HPLC-based fluorescence analysis
Type: ADME, organism-based
Details: in vivo
Quantity: Drug uptake (ng/g)
Field format: number, assumed ng/g, no unit text.

# Drug uptake (molecule: CN1CC2C3=N/C(=C(/c4c(F)c(F)c(S[C@@H]5O[C@H](CO)[C@@H](O)[C@H](O)[C@H]5O)c(F)c4F)C4=N/C(=C(/c5c(F)c(F)c(F)c(F)c5F)c5ccc([nH]5)/C(c5c(F)c(F)c(S[C@@H]6O[C@H](CO)[C@@H](O)[C@H](O)[C@H]6O)c(F)c5F)=C5/C=CC(=N5)C3c3c(F)c(F)c(F)c(F)c3F)C=C4)C2C1 (stereo partly specified) ) is 29

----------
Assay: Drug uptake in BALB/c mouse large intestine implanted with mouse 4T1 cells assessed per gram of tissue at 0.18 mg/kg, ip after 24 hrs by HPLC-based fluorescence analysis
Type: ADME, organism-based
Conditions: in vivo
Quantity: Drug uptake (ng/g)
Form entry: value (ng/g) — number only.

// sample CN1CC2C3=N/C(=C(/c4c(F)c(F)c(S[C@@H]5O[C@H](CO)[C@@H](O)[C@H](O)[C@H]5O)c(F)c4F)C4=N/C(=C(/c5c(F)c(F)c(F)c(F)c5F)c5ccc([nH]5)/C(c5c(F)c(F)c(S[C@@H]6O[C@H](CO)[C@@H](O)[C@H](O)[C@H]6O)c(F)c5F)=C5/C=CC(=N5)C3c3c(F)c(F)c(F)c(F)c3F)C=C4)C2C1 (stereo partly specified) , its Drug uptake was 60

----------
Test system: 4T1
Experiment: Drug uptake in mouse 4T1 cells implanted in BALB/c mouse assessed per gram of tissue at 0.18 mg/kg, ip after 48 hrs by HPLC-based fluorescence analysis
Type: ADME, organism-based
Details: in vivo
Quantity: Drug uptake (ng/g)
Numeric only. Scale: ng/g

Value sought: Drug uptake, system 4T1, item CN1CC2C3=N/C(=C(/c4c(F)c(F)c(S[C@@H]5O[C@H](CO)[C@@H](O)[C@H](O)[C@H]5O)c(F)c4F)C4=N/C(=C(/c5c(F)c(F)c(F)c(F)c5F)c5ccc([nH]5)/C(c5c(F)c(F)c(S[C@@H]6O[C@H](CO)[C@@H](O)[C@H](O)[C@H]6O)c(F)c5F)=C5/C=CC(=N5)C3c3c(F)c(F)c(F)c(F)c3F)C=C4)C2C1 (stereo partly specified) . Result: 1.4

----------
Test: Induction of reactive oxygen generation assessed as quantum yield of hydrogen peroxide generation in O2 saturated PBS containing 1% DMSO under photoirradiation by spectrometry relative to control hematoporphyrin
Type: physicochemical
Details: buffer
Quantity: Ratio
Just the number.

CN1CC2C3=N/C(=C(/c4c(F)c(F)c(S[C@@H]5O[C@H](CO)[C@@H](O)[C@H](O)[C@H]5O)c(F)c4F)C4=N/C(=C(/c5c(F)c(F)c(S[C@@H]6O[C@H](CO)[C@@H](O)[C@H](O)[C@H]6O)c(F)c5F)c5ccc([nH]5)/C(c5c(F)c(F)c(S[C@@H]6O[C@H](CO)[C@@H](O)[C@H](O)[C@H]6O)c(F)c5F)=C5/C=CC(=N5)C3c3c(F)c(F)c(S[C@@H]5O[C@H](CO)[C@@H](O)[C@H](O)[C@H]5O)c(F)c3F)C=C4)C2C1 (some centres undefined) | 1.7
CC1=C(CCC(=O)O)c2cc3[nH]c(cc4nc(cc5[nH]c(cc1n2)c(C)c5C(C)O)C(C)=C4C(C)O)c(C)c3CCC(=O)O (centres undefined) | 1
OC[C@H]1O[C@@H](Sc2c(F)c(F)c(/C3=C4\C=CC(=N4)C(c4c(F)c(F)c(F)c(F)c4F)C4=N/C(=C(/c5c(F)c(F)c(S[C@@H]6O[C@H](CO)[C@@H](O)[C@H](O)[C@H]6O)c(F)c5F)c5ccc([nH]5)/C(c5c(F)c(F)c(F)c(F)c5F)=C5/C=CC3=N5)C=C4)c(F)c2F)[C@H](O)[C@@H](O)[C@@H]1O (some centres undefined) | 0.8

Turning now to a further record.
// field: Ratio; key: CN1CC2C3=N/C(=C(/c4c(F)c(F)c(S[C@@H]5O[C@H](CO)[C@@H](O)[C@H](O)[C@H]5O)c(F)c4F)C4=N/C(=C(/c5c(F)c(F)c(F)c(F)c5F)c5ccc([nH]5)/C(c5c(F)c(F)c(S[C@@H]6O[C@H](CO)[C@@H](O)[C@H](O)[C@H]6O)c(F)c5F)=C5/C=CC(=N5)C3c3c(F)c(F)c(F)c(F)c3F)C=C4)C2C1 (some centres undefined) ; value = 0.18

----------
System: Stomach
Assay: Drug uptake in BALB/c mouse stomach implanted with mouse 4T1 cells assessed per gram of tissue at 0.18 mg/kg, ip after 12 hrs by HPLC-based fluorescence analysis
Assay type: ADME, organism-based
Settings: in vivo
Quantity: Drug uptake (ng/g)
Supply the numeric figure in ng/g, leaving out any unit text.

Fill in: Stomach Drug uptake for CN1CC2C3=N/C(=C(/c4c(F)c(F)c(S[C@@H]5O[C@H](CO)[C@@H](O)[C@H](O)[C@H]5O)c(F)c4F)C4=N/C(=C(/c5c(F)c(F)c(F)c(F)c5F)c5ccc([nH]5)/C(c5c(F)c(F)c(S[C@@H]6O[C@H](CO)[C@@H](O)[C@H](O)[C@H]6O)c(F)c5F)=C5/C=CC(=N5)C3c3c(F)c(F)c(F)c(F)c3F)C=C4)C2C1 (stereo partly specified) = 20

----------
Assay: Drug uptake in BALB/c mouse large intestine implanted with mouse 4T1 cells assessed per gram of tissue at 0.18 mg/kg, ip after 72 hrs by HPLC-based fluorescence analysis
Type: ADME, organism-based
Details: in vivo
Quantity: Drug uptake
Show the value, then the unit it is measured in.

Input CN1CC2C3=N/C(=C(/c4c(F)c(F)c(S[C@@H]5O[C@H](CO)[C@@H](O)[C@H](O)[C@H]5O)c(F)c4F)C4=N/C(=C(/c5c(F)c(F)c(F)c(F)c5F)c5ccc([nH]5)/C(c5c(F)c(F)c(S[C@@H]6O[C@H](CO)[C@@H](O)[C@H](O)[C@H]6O)c(F)c5F)=C5/C=CC(=N5)C3c3c(F)c(F)c(F)c(F)c3F)C=C4)C2C1 (stereo partly specified) . Output Drug uptake: 7 ng/g

----------
Test system: Heart
Assay: Drug uptake in BALB/c mouse heart implanted with mouse 4T1 cells assessed per gram of tissue at 0.18 mg/kg, ip after 12 hrs by HPLC-based fluorescence analysis
Assay type: ADME, organism-based
Conditions: in vivo
Quantity: Drug uptake (ng/g)
Give a bare numeral; the unit ng/g is implied.

The recorded Drug uptake for CN1CC2C3=N/C(=C(/c4c(F)c(F)c(S[C@@H]5O[C@H](CO)[C@@H](O)[C@H](O)[C@H]5O)c(F)c4F)C4=N/C(=C(/c5c(F)c(F)c(F)c(F)c5F)c5ccc([nH]5)/C(c5c(F)c(F)c(S[C@@H]6O[C@H](CO)[C@@H](O)[C@H](O)[C@H]6O)c(F)c5F)=C5/C=CC(=N5)C3c3c(F)c(F)c(F)c(F)c3F)C=C4)C2C1 (stereo partly specified) is 6

----------
Test system: Spleen
Assay: Drug uptake in BALB/c mouse spleen implanted with mouse 4T1 cells assessed per gram of tissue at 0.18 mg/kg, ip after 6 hrs by HPLC-based fluorescence analysis
Type: ADME, organism-based
Conditions: in vivo
Quantity: Drug uptake (ng/g)
The figure you give is taken to be in ng/g; do not add the unit.

Reported Drug uptake ( CN1CC2C3=N/C(=C(/c4c(F)c(F)c(S[C@@H]5O[C@H](CO)[C@@H](O)[C@H](O)[C@H]5O)c(F)c4F)C4=N/C(=C(/c5c(F)c(F)c(F)c(F)c5F)c5ccc([nH]5)/C(c5c(F)c(F)c(S[C@@H]6O[C@H](CO)[C@@H](O)[C@H](O)[C@H]6O)c(F)c5F)=C5/C=CC(=N5)C3c3c(F)c(F)c(F)c(F)c3F)C=C4)C2C1 (stereo partly specified) ) = 90

----------
System: 4T1
Experiment: Drug uptake in mouse 4T1 cells implanted in BALB/c mouse assessed per gram of tissue at 0.18 mg/kg, ip after 12 hrs by HPLC-based fluorescence analysis
Assay type: ADME, organism-based
Details: in vivo
Quantity: Drug uptake
Please give the number followed by its unit.

// CN1CC2C3=N/C(=C(/c4c(F)c(F)c(S[C@@H]5O[C@H](CO)[C@@H](O)[C@H](O)[C@H]5O)c(F)c4F)C4=N/C(=C(/c5c(F)c(F)c(F)c(F)c5F)c5ccc([nH]5)/C(c5c(F)c(F)c(S[C@@H]6O[C@H](CO)[C@@H](O)[C@H](O)[C@H]6O)c(F)c5F)=C5/C=CC(=N5)C3c3c(F)c(F)c(F)c(F)c3F)C=C4)C2C1 (stereo partly specified) : Drug uptake value = 4 ng/g
